Test system: proteins that co-immunoprecipitated with DUX4-CTD constructs expressed in MB135 myoblasts
Assay method text: LC-MS of proteins co-immunoprecipitated with DUX4-CTD (Table 1) and western validation
Format: binding, human
Design: key: peptide-spectrum matches (PSMs) per protein
Measurement parameters: bait longCTD; experiment 3, IFNg + Dox
Quantity kind: 3. + IFNg + Dox longCTD
Lab note: record just the number, no unit beside it.

Find the recorded 3. + IFNg + Dox longCTD belonging to A0A087WW87 (protein, UniProt A0A087WW87 1-121, looked up, full-length) MRLPAQLLGLLMLWVPGSSEDIVMTQTPLSLPVTPGEPASISCRSSQSLLDSDDGNTYLDWYLQKPGQSPQLLIYTLSYRASGVPDRFSGSGSGTDFTLKISRVEAEDVGVYYCMQRIEFP and report it.
2

Do the same for Q00325 (protein, UniProt Q00325 1-362, looked up, full-length) MFSSVAHLARANPFNTPHLQLVHDGLGDLRSSSPGPTGQPRRPRNLAAAAVEEQYSCDYGSGRFFILCGLGGIISCGTTHTALVPLDLVKCRMQVDPQKYKGIFNGFSVTLKEDGVRGLAKGWAPTFLGYSMQGLCKFGFYEVFKVLYSNMLGEENTYLWRTSLYLAASASAEFFADIALAPMEAAKVRIQTQPGYANTLRDAAPKMYKEEGLKAFYKGVAPLWMRQIPYTMMKFACFERTVEALYKFVVPKPRSECSKPEQLVVTFVAGYIAGVFCAIVSHPADSVVSVLNKEKGSSASLVLKRLGFKGVWKGLFARIIMIGTLTALQWFIYDSVKVYFRLPRPPPPEMPESLKKKLGLTQ please
1

P06702 (protein, UniProt P06702 1-114, looked up, full-length) MTCKMSQLERNIETIINTFHQYSVKLGHPDTLNQGEFKELVRKDLQNFLKKENKNEKVIEHIMEDLDTNADKQLSFEEFIMLMARLTWASHEKMHEGDEGPGHHHKPGLGEGTP , same question.
1

// repeat for P11802 (protein, UniProt P11802 1-303, looked up, full-length) MATSRYEPVAEIGVGAYGTVYKARDPHSGHFVALKSVRVPNGGGGGGGLPISTVREVALLRRLEAFEHPNVVRLMDVCATSRTDREIKVTLVFEHVDQDLRTYLDKAPPPGLPAETIKDLMRQFLRGLDFLHANCIVHRDLKPENILVTSGGTVKLADFGLARIYSYQMALTPVVVTLWYRAPEVLLQSTYATPVDMWSVGCIFAEMFRRKPLFCGNSEADQLGKIFDLIGLPPEDDWPRDVSLPRGAFPPRGPRPVQSVVPEMEESGAQLLLEMLTFNPHKRISAFRALQHSYLHKDEGNPE and report
1

What about this molecule? P04899 (protein, UniProt P04899 1-355, looked up, full-length) MGCTVSAEDKAAAERSKMIDKNLREDGEKAAREVKLLLLGAGESGKSTIVKQMKIIHEDGYSEEECRQYRAVVYSNTIQSIMAIVKAMGNLQIDFADPSRADDARQLFALSCTAEEQGVLPDDLSGVIRRLWADHGVQACFGRSREYQLNDSAAYYLNDLERIAQSDYIPTQQDVLRTRVKTTGIVETHFTFKDLHFKMFDVGGQRSERKKWIHCFEGVTAIIFCVALSAYDLVLAEDEEMNRMHESMKLFDSICNNKWFTDTSIILFLNKKDLFEEKITHSPLTICFPEYTGANKYDEAASYIQSKFEDLNKRKDTKEIYTHFTCATDTKNVQFVFDAVTDVIIKNNLKDCGLF
1

Request: P05141 (protein, UniProt P05141 1-298, looked up, full-length) MTDAAVSFAKDFLAGGVAAAISKTAVAPIERVKLLLQVQHASKQITADKQYKGIIDCVVRIPKEQGVLSFWRGNLANVIRYFPTQALNFAFKDKYKQIFLGGVDKRTQFWLYFAGNLASGGAAGATSLCFVYPLDFARTRLAADVGKAGAEREFRGLGDCLVKIYKSDGIKGLYQGFNVSVQGIIIYRAAYFGIYDTAKGMLPDPKNTHIVISWMIAQTVTAVAGLTSYPFDTVRRRMMMQSGRKGTDIMYTGTLDCWRKIARDEGGKAFFKGAWSNVLRGMGGAFVLVLYDEIKKYT
3
